Kindly supply the reported TGI values for the records listed here.
Tested on: OVCAR-3 ovarian
Assay: NCI tumour cell line growth inhibition, 48 h
Quick reminder: number only, in µM, skip the unit.

Please give measured TGI of the following entry: C=C1C(=O)O[C@H]2C(=O)[C@H](C)CCC/C(C)=C/CC[C@@]3(C)O[C@@H]3C[C@@H]12
3.52

Please give measured TGI of the following entry: COC1=CC(=O)C2=C(C1=O)[C@H]1CC[C@]3(C)C(=O)CC[C@H]3[C@@H]1CC2
52.3

Please give measured TGI of the following entry: CC(=O)NC(CCc1ccc(Cl)c(Cl)c1)c1cccc(O)c(=O)c1 (stereo not given)
14.7

Please give measured TGI of the following entry: C=C(CN(C)C)C(=O)c1ccccc1
9.9

====

Kindly supply the reported TGI values for the records listed here.
Tested on: HCT-15 colon
Assay: NCI tumour cell line growth inhibition, 48 h

Please give measured TGI of the following entry: O=C1CC[C@@H](S(=O)(=O)c2ccccc2)[C@H](/C=C/c2ccccc2)O1
> 100 µM

Please give measured TGI of the following entry: CN1C(=O)[C@@H](CC2CCCC2)N(C2CCCC2)c2nc(Nc3cc(Cl)c(O)c(Cl)c3)ncc21
56.2 µM

Please give measured TGI of the following entry: C#CCC(O)c1ccc(OC)c(OCc2ccccc2)c1 (stereo not given)
> 100 µM

Please give measured TGI of the following entry: CCN(CC)CCOc1ccc2c(-c3ccccc3)c(-c3ccc(OC)cc3)c(=O)oc2c1
8.18 µM

Please give measured TGI of the following entry: COC12OCCN(C)C1=CC(=O)C1N=NCC12 (stereo not given)
> 100 µM

Please give measured TGI of the following entry: C=CCc1cc(O)ccc1O
> 100 µM

Please give measured TGI of the following entry: O=C1NC(c2cccc3ccccc23)Nc2ccc(Cl)cc21 (stereo not given)
0.269 µM

Please give measured TGI of the following entry: O=C(Nc1ccc(C(F)(F)F)cc1[N+](=O)[O-])C(=O)Nn1c(=S)[nH]c2ccccc2c1=O
> 100 µM

Please give measured TGI of the following entry: COc1cc2c3c(n(CCCNCCCCN)c(=O)c2cc1OC)-c1cc2c(cc1C3=O)OCO2
> 54.4 µM

Please give measured TGI of the following entry: CCNCCS(=O)(=O)NC[C@@]1(c2ccccc2)SC(NC(=O)C(C)(C)C)=NN1C(=O)C(C)(C)C
> 100 µM

====

System: IGROV1 ovarian
Assay: NCI tumour cell line growth inhibition, 48 h
Where TGI equals or exceeds 30 µM, the correct label is 1; where it does not, the label is 0.

API: above_or_equal(metric=TGI, cutoff=30 µM) for item NC(=S)N/N=C/C(O[C@@H](/C=N/NC(N)=S)CO)n1cnc2c(N)ncnc21 (stereo not given in full)
1

API: above_or_equal(metric=TGI, cutoff=30 µM) for item COc1ccc(/C=C/c2cc(O)cc(OC3OC(CO)C(O)C(O)C3O)c2)cc1O (stereo not given)
1

API: above_or_equal(metric=TGI, cutoff=30 µM) for item O=c1c2ccccc2nc(-c2ccccc2)n1/N=C/c1ccccc1[N+](=O)[O-]
1

API: above_or_equal(metric=TGI, cutoff=30 µM) for item O=C1NC(c2cccc3ccccc23)Nc2ccc(Cl)cc21 (stereo not given)
1

API: above_or_equal(metric=TGI, cutoff=30 µM) for item O=C(Oc1ccc(C(c2c(O)c3ccccc3oc2=O)c2c(O)c3ccccc3oc2=O)cc1)c1ccc(C(=O)c2ccccc2)cc1
1

API: above_or_equal(metric=TGI, cutoff=30 µM) for item CC(=O)OC1CCn2c1nc1c2C(=O)C=C(N2CC2)C1=O (stereo not given)
0

API: above_or_equal(metric=TGI, cutoff=30 µM) for item NN/C(=N\S(=O)(=O)c1cc(S(=O)(=O)c2ccccc2)cs1)Nc1ccc(Cl)cc1
1

API: above_or_equal(metric=TGI, cutoff=30 µM) for item Cc1cc(C(O)CCCc2ccccc2)cc(C)c1O (stereo not given)
1

API: above_or_equal(metric=TGI, cutoff=30 µM) for item Cc1cc2c3c(nc4ccccc42)C(=O)c2cccnc2-c3n1
0

API: above_or_equal(metric=TGI, cutoff=30 µM) for item COC1=CC(=O)C2=C(C1=O)[C@H]1CC[C@]3(C)C(=O)CC[C@H]3[C@@H]1CC2
1

====

Tested on: COLO 205 colon
Assay: NCI tumour cell line growth inhibition, 48 h
*1 amine or outer side, *2 acyl side, *3 side chain or, on linkers, in order; H or OH if unused. Where a SMILES comes first, the peptide text is derived from it. Bridges are numbered along the chain shown (N, C = ends). Roman numbers before positions name the chains, in order. [ ]: non-standard residue; d: D form. Actinocin(1to9) = Cc1c2oc3c(C)ccc(C(=O)[*:2])c3nc-2c(C(=O)[*:1])c(N)c1=O; NMeV = CN[CH](C(=O)O)C(C)C; Sar = CNCC(=O)O
Where TGI equals or exceeds 40 µM, the correct label is Met; where it does not, the label is Not met.

API: above_or_equal(metric=TGI, cutoff=40 µM) for item COc1ncnc2c(Cl)c(C(O)c3ccccc3)c(Cl)cc12 (centres undefined)
Met

API: above_or_equal(metric=TGI, cutoff=40 µM) for item CCN(CC)Cc1cc(Nc2ccnc3ccc(OC)cc23)ccc1O
Not met

API: above_or_equal(metric=TGI, cutoff=40 µM) for item CN(C)CC1CCCC/C1=N\OC(=O)c1ccccc1 (centres undefined)
Met

API: above_or_equal(metric=TGI, cutoff=40 µM) for item COC(=O)NCCc1[nH]nc2c1C(=O)C=C(Nc1ccccc1OC)C2=O
Met

API: above_or_equal(metric=TGI, cutoff=40 µM) for item CC1=CP(=O)(OC(C)C)C=C(C)C1=C(Cl)Cl (centres undefined)
Not met

API: above_or_equal(metric=TGI, cutoff=40 µM) for item CCN(CC)CCOc1ccc(/C(=C(\C)Cc2ccc(OC)cc2)c2ccc(O)cc2)cc1
Not met

API: above_or_equal(metric=TGI, cutoff=40 µM) for item O=C(Nc1ccc(Nc2ccc(NC(=O)c3ccccc3)c3c2C(=O)c2ccccc2C3=O)c2c1C(=O)c1ccccc1C2=O)c1ccccc1
Met

API: above_or_equal(metric=TGI, cutoff=40 µM) for item Cc1ccc(S(=O)(=O)NCCCSCCN)cc1
Met

API: above_or_equal(metric=TGI, cutoff=40 µM) for item Cc1cc(C(O)CCCc2ccccc2)cc(C)c1O (centres undefined)
Met

API: above_or_equal(metric=TGI, cutoff=40 µM) for item CC1=C(C)C2(C#N)C(=O)N3C(=NC(c4ccco4)NC3c3ccco3)C2(C#N)C(c2ccco2)N1 (centres undefined)
Met

API: above_or_equal(metric=TGI, cutoff=40 µM) for item [pH]1p2[pH]p3p1p3[pH]2.c1cc[c]([Ge]([c]2ccccc2)[c]2ccccc2)cc1.c1cc[c]([Ge]([c]2ccccc2)[c]2ccccc2)cc1.c1cc[c]([Ge]([c]2ccccc2)[c]2ccccc2)cc1
Not met

API: above_or_equal(metric=TGI, cutoff=40 µM) for item COC(=O)C(Cc1c(-c2[nH]c3ccccc3c2CC(NC(C)=O)C(=O)OC)[nH]c2ccccc12)NC(C)=O (centres undefined)
Met

API: above_or_equal(metric=TGI, cutoff=40 µM) for item [CH3][Ge]([CH3])([CH2]CC#N)[S]c1ccccc1
Met

API: above_or_equal(metric=TGI, cutoff=40 µM) for item CN1C(=O)C(O)CC1c1ccccc1F (centres undefined)
Met

API: above_or_equal(metric=TGI, cutoff=40 µM) for item CC(C)(C)OC(=O)NC(Cc1ccc(OC(C)(C)C)cc1)C(=O)N[C@H]1CC[C@H](C(=O)O)C1 (some centres undefined)
Met

API: above_or_equal(metric=TGI, cutoff=40 µM) for item CC(=O)OC[C@@]1(C)[C@@H]2[C@@H]3[C@@]4(CO[C@]3(C)C(=O)[C@@]3(OC(C)=O)C[C@H](C)[C@H](OC(C)=O)[C@@H]3[C@H]4OC(C)=O)[C@H](OC(=O)c3ccccc3)C[C@@H]21
Met

API: above_or_equal(metric=TGI, cutoff=40 µM) for item c1ccc(CN2C3C4N(Cc5ccccc5)C2C2N(Cc5ccccc5)C(C(N2Cc2ccccc2)N4Cc2ccccc2)N3Cc2ccccc2)cc1
Met

API: above_or_equal(metric=TGI, cutoff=40 µM) for item Nc1ncc(-c2ccc3ncnc(N4CCc5cc(F)c(Cl)cc54)c3c2)cc1C=O
Met

API: above_or_equal(metric=TGI, cutoff=40 µM) for item O=C1C=C(Nc2cc(Cl)ccc2Cl)c2ccccc2C1=O
Met

API: above_or_equal(metric=TGI, cutoff=40 µM) for item CC(=O)NNc1nc(C)c(C(=O)/C=C/c2ccc(N(C)C)cc2)s1
Met

API: above_or_equal(metric=TGI, cutoff=40 µM) for item COc1ccc(/C(=N/Nc2nc3ccccc3n2Cc2ccccc2)C(=O)O)cc1
Met

API: above_or_equal(metric=TGI, cutoff=40 µM) for item OCC1NC(CO)C(O)C1O (centres undefined)
Met

API: above_or_equal(metric=TGI, cutoff=40 µM) for item CC[C@]1(O)CC2CN(CCc3c([nH]c4ccccc34)C(C(=O)OC)(c3cc4c(cc3OC)N(C=O)[C@H]3[C@@](O)(C(=O)OC)[C@H](OC(C)=O)[C@]5(CC)[C@@H]6C[C@@H]6CN6CC[C@]43[C@@H]65)C2)C1 (some centres undefined)
Not met

API: above_or_equal(metric=TGI, cutoff=40 µM) for item O=C(O[C@H](/C=C/c1ccccc1)P1(=O)N(Cc2ccccc2)[C@H]2CCCC[C@@H]2N1Cc1ccccc1)c1ccccc1
Not met

API: above_or_equal(metric=TGI, cutoff=40 µM) for item COc1ccc(CC2NC(=O)C(NC(=O)c3c4nc5c(C(=O)NC6C(=O)NC(Cc7ccc(OC)cc7)C(=O)N7CCCC7C(=O)N(C)CC(=O)N(C)C(C(C)C)C(=O)OC6C)ccc(C)c5oc-4c(C)c(=O)c3N)C(C)OC(=O)C(C(C)C)N(C)C(=O)CN(C)C(=O)C3CCCN3C2=O)cc1 (centres undefined) (I: TY(Me)P[Sar][NMeV] / II: TY(Me)P[Sar][NMeV]; ester I:1-I:C, II:1-II:C; linker I:N-II:N via Actinocin(1to9); configuration not given here)
Not met

API: above_or_equal(metric=TGI, cutoff=40 µM) for item CCN(CC)CCOc1ccc2c(-c3ccccc3)c(-c3ccc(OC)cc3)c(=O)oc2c1
Not met

API: above_or_equal(metric=TGI, cutoff=40 µM) for item O=c1[nH]c(-c2ccccc2)nc2cc([N+](=O)[O-])c(/C(Cl)=C/c3ccccc3)cc12
Met

API: above_or_equal(metric=TGI, cutoff=40 µM) for item CC(C)N(CCNc1nc(C(Cl)(Cl)Cl)nc2cc(Cl)ccc12)C(C)C
Not met

API: above_or_equal(metric=TGI, cutoff=40 µM) for item CCN(CC)CCC(=O)c1ccc(Cl)c(Cl)c1
Met

API: above_or_equal(metric=TGI, cutoff=40 µM) for item COc1ccc(C(=O)C(c2ccc(OC)cc2)C2(O)C(=O)Nc3c(Cl)cc(Cl)cc32)cc1 (centres undefined)
Met

API: above_or_equal(metric=TGI, cutoff=40 µM) for item COC(=O)C1=C(C)N(NC(N)=O)C2(N)N(NC(N)=O)C(C)=C(C(=O)OC)C12C#N (centres undefined)
Met
